This collection of values is drawn from the supplement of paper PMC4466140.

Molecular target: CaBzz1-D2
Test: SPOT peptide array binding signal intensity (averaged, normalized) (arbitrary units (background-subtracted, floor 0; scale differs between SH3 domains)); higher = stronger binding of the SH3 domain to the peptide
Please respond with reported SPOT peptide array binding signal intensity for every item in the list.
Numbers only.

# Binder, Measured Result
records = [
    ("VAPPPLPNRQLPNLD", 4),
    ("VQQDSLPKLPFRSWG", 27.5),
    ("TKPTPPPKPSHLKPK", 357),
    ("RLPAPPPPPRRGPAP", 1540),
    ("ALRRRLPVTRSKINW", 151),
    ("NPTKSPPPPPSPSTM", 1620),
]

Could you now consider this next binder?
INPUT: Tell me its SPOT peptide array binding signal intensity given AGKRRLPLVRFKASD as the entry.
OUTPUT: 147
